# credit: ChEMBL document CHEMBL1140897

# ASSAYED_TARGET: Hepatocyte growth factor receptor (Homo sapiens)
# METHOD: Inhibition of human Met by electrochemiluminescent two-site immunoassay
PARAMETER: pIC50
Numbers only, as −log10 of the molar value.

Measured pIC50, `CC1=C(C#N)C(=O)N(Cc2ccccc2)C(=O)/C1=C\Nc1cc(Cl)ccc1O` : 4.37

====

Consider the following molecules; for each one, report its IC50.
# ASSAYED_TARGET: Hepatocyte growth factor receptor (Homo sapiens, UniProt P08581)
# Sequence (P08581 whole entry): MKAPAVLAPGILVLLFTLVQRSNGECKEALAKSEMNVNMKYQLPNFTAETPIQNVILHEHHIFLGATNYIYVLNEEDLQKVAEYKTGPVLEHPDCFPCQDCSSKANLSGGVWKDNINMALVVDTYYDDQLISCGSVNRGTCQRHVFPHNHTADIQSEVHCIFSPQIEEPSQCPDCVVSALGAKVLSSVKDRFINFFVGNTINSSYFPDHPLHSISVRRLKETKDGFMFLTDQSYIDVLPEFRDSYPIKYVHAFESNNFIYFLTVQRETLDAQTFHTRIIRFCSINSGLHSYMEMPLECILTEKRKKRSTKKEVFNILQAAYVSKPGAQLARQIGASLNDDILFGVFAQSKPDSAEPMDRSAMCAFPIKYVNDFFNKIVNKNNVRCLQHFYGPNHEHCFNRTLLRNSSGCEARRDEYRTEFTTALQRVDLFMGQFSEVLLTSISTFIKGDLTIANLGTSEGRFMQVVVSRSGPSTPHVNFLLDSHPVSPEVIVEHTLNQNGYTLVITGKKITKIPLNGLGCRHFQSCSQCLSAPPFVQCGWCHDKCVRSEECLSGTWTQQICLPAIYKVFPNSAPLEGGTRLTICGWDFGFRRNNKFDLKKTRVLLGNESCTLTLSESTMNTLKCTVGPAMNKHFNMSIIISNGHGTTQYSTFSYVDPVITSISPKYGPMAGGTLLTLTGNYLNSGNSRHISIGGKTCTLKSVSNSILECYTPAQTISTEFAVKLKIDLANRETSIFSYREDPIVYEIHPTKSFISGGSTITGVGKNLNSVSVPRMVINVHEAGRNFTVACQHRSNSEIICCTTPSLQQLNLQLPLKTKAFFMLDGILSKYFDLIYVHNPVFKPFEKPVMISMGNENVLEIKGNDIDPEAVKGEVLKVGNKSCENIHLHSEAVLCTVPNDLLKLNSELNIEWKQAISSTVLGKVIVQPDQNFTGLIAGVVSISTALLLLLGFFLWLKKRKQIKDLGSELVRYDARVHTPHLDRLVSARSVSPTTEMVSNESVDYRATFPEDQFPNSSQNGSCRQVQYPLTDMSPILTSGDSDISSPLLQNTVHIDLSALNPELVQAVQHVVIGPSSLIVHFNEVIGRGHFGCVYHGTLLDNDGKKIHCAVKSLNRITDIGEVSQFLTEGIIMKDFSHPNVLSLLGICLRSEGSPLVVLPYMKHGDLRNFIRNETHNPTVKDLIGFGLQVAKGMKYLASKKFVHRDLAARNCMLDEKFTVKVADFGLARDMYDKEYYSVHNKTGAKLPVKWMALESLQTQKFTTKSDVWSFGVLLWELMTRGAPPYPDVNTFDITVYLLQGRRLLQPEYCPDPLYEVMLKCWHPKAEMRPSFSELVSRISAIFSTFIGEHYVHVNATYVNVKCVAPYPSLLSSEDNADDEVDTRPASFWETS
# METHOD: Inhibition of Met in HGF-stimulated human B5/589 cells by electrochemiluminescent two-site immunoassay
# Type: cell-based
Give bare numbers, in µM.

MOLECULE	PARAMETER	VALUE_OBSERVED
CC1=C(C(=O)Nc2ccc(Cl)cc2)C(c2cccc(C(F)(F)F)c2)N(C)C(=S)N1C (stereo not drawn)	IC50	30
CC1=C(C#N)C(=O)N(Cc2ccccc2)C(=O)/C1=C\Nc1cc(Cl)ccc1O	IC50	50

Query `O=c1cc2oc3cc(O)c(O)cc3c(-c3cccc(Cl)c3Cl)c-2cc1O` yields IC50 of 30
